system: T1, rhPSMA, extracellular part of human PSMA (residues 44-750) with its native N-terminus (human, UniProt Q04609 44-750, N-glycosylated (made in Schneider S2 insect cells))
T1 construct: range 44-750; No tag; also called wild-type rhPSMA; rhGCPII
T1 sequence (Q04609 44-750 limits assumed): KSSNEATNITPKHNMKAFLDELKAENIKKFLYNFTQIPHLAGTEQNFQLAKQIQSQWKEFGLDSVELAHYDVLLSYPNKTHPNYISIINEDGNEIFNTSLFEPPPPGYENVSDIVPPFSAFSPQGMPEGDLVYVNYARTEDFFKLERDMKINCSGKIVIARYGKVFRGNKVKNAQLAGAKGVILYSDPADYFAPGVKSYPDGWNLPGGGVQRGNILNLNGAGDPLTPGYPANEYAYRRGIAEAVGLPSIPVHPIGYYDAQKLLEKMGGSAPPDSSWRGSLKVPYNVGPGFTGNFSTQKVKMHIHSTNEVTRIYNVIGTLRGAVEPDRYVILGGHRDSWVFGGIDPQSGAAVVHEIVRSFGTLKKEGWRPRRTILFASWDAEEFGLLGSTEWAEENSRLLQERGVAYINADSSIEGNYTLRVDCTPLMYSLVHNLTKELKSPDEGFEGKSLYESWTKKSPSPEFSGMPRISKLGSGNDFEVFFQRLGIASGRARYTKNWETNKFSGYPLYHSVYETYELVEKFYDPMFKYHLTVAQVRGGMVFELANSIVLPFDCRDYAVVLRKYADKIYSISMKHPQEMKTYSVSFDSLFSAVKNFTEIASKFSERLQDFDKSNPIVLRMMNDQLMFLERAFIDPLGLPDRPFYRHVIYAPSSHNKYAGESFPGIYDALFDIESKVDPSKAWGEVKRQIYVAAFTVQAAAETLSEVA
assay-procedure: SPR (BIAcore 2000), rhPSMA amine-coupled to CM5 chip, Anticalin as analyte
experimental-readout: koff (s⁻¹)
Only the number, expressed in s⁻¹, is required.

Anticalin A3 (designed binder, Lcn2-derived lipocalin variant, monomeric, made by periplasmic secretion in E. coli from pNGAL98 with a C-terminal Strep-tag II; also called variant A3; not shown: C-terminal Strep-tag II) QDSTSDLIPAPPLSKVPLQQNFQDNQFHGKWYVVGLAGNMILREDKDPYKMSATIYELKEDKSYNVTNVRFYLKKCYYTIATFVPGSQPGEFTLGTIKSGPGKTSGLVRVVSTNYNQHAMVFFKEVQQNREWFIITLYGRTKELTSELKENFIRFSKSLGLPENHIVFPVPIDQCIDG: 0.00058
Anticalin A3A5.7 (designed binder, Soluble form as in SPR; also called variant A3A5.7; not shown: C-terminal Strep-tag II) QDSTSDLIPAPPLSKVPLQQNFQDNQFHGKWYVVGLAGNVILREDKDPYKMSATIYELKEDKSYNVTNVRFYLNKCYYTIATFVPGSRPGEFTLGTIKSGPGKTSGLVRVVSTNYSQHAMVFFKEVQQNREWFIITLYGRTKELTSKLKENFIRFSKSLGLPENHIVFPVPIDQCIDG: 0.00014

Here's the next entry for you.
Incoming: Quick one: koff for Anticalin A3A5.1 (designed binder, Soluble form as in SPR; also called variant A3A5.1; not shown: C-terminal Strep-tag II) QDSTSDLIPAPPLSKVPLQQNFQDNQFHGKWYVVGLAGNVILREDKDPYKMSATIYELNEDKSYNVTNVRYYLKKCYYTIATFVPGSQPGEYTLGTIKSGPGDTSGLVRVVSTNYNQHAMVFFKEVQQNREWFIITLYGRTKELTSKLKENFIRFSKSLGLPENHIVFPVPIDQCIDG ?
Outgoing: 0.00014
